Data credit: paper PMC4229100

# SYSTEM: CCK2R (Homo sapiens)
# Sequence (P32239 whole entry): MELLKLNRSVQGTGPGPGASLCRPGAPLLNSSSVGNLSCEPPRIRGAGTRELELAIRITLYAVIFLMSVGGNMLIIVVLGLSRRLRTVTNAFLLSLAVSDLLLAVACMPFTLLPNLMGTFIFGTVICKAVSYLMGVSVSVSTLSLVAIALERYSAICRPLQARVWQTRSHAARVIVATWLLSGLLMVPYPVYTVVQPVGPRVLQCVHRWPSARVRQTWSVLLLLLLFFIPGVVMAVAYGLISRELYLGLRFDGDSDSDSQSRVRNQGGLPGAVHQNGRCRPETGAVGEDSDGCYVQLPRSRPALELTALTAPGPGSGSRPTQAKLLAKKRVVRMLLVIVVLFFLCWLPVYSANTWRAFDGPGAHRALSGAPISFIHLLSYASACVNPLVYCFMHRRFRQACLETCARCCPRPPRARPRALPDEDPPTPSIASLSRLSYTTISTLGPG
# PROCEDURE DETAILS: Antagonist inhibition of agonist-induced CCK2R signaling (SRE-luciferase, HEK293)
# Type: cell-based
# Parameters: expressed in transfected cells; host or cells: HEK293
# TEST SETTINGS: agonist 10 µM l-CCK4-Gly-COOH, 4 hours; read-out: IC50 for inhibition of l-CCK4-Gly-COOH induced CCK2R signaling
REPORTED METRIC: pIC50
Bear in mind: pIC50 is minus log10 of a mol/L concentration; give just that figure.

Exam item: Tell me reported pIC50 for "Cc1cccc(NC(=O)N[C@@H]2N=C(c3ccccc3)c3ccccc3N(CC(=O)c3ccccc3C)C2=O)c1" , tested with CCK2R (Homo sapiens).
Marked response: 7.99

----------
# SYSTEM: CCK2R (Homo sapiens)
# PROCEDURE DETAILS: Antagonist inhibition of agonist-induced CCK2R signaling (SRE-luciferase, HEK293)
# Format: cell-based
# Design: expressed in transfected cells; host or cells: HEK293
# TEST SETTINGS: agonist tCCK4-Gly (coexpressed MTL); antagonist added 4 hours after transfection for 20 hours; read-out: IC50 for inhibition of tCCK4-Gly induced CCK2R signaling
REPORTED METRIC: pIC50
Would you please state pIC50, meaning minus log10 of the concentration in mol/L, as a bare number?

Exam item: Reported pIC50, compound "Cc1cccc(NC(=O)N[C@@H]2N=C(c3ccccc3)c3ccccc3N(CC(=O)c3ccccc3C)C2=O)c1" : ____
Marked response: 9.27
